Just for reference, the Immune Epitope Database (IEDB) is where these values come from.

biological target: HLA-A*26:01; test: IEDB peptide-MHC binding, purified MHC/direct/fluorescence; filed as Kd, often an IC50 or EC50 that approximates it; bounds were set here for any values at or beyond the usual limits of such assays; settings: source organism: Escherichia coli O157:H7
What Kd was measured for each of the following?

Ask | # query: Kd of entry "RFDEAIINY"
Reply | ≥ 20 µM

Ask | Name the reported Kd value associated with the sequence "AQRPAKYSY"
Reply | ≥ 20 µM

====

target: HLA-C*14:02; assay: IEDB peptide-MHC binding, purified MHC/direct/fluorescence; filed as Kd, often an IC50 or EC50 that approximates it; bounds were set here for any values at or beyond the usual limits of such assays; conditions: source organism: Vaccinia virus Copenhagen
observation.type: pKd
# pKd: negative log10 of molar concentration; output just the value

Ask | Param readout= pKd; system= HLA-C*14:02; entry= "RYWYFAAEL" ; returns value.
Reply | 7.82

====

molecular target: HLA-A*26:01; experiment: IEDB peptide-MHC binding, purified MHC/competitive/fluorescence; filed as Kd, often an IC50 or EC50 that approximates it; bounds were set here for any values at or beyond the usual limits of such assays; details: source organism: Yersinia pestis Nepal516
observation.type: Kd (µM)
Reply with just the number (in µM).

Ask | Quick one: Kd for "FVMSCKLLY" ?
Reply | 0.327

====

molecular target: HLA-A*23:01; test: IEDB peptide-MHC binding, purified MHC/competitive/radioactivity; filed as Kd, often an IC50 or EC50 that approximates it; bounds were set here for any values at or beyond the usual limits of such assays; conditions: source organism: Mammarenavirus guanaritoense
Consider the following sequences; for each one, report its Kd.
Value expressed in nM; do not type the unit.

Ask | Requested read-out: Kd. Entry: "VWKSGILQLF"
Reply | 16.5

Ask | Entry "KYILIQAGF" has what Kd?
Reply | 1.77

====

molecular target: HLA-B*27:05; test: IEDB peptide-MHC binding, purified MHC/direct/fluorescence; filed as Kd, often an IC50 or EC50 that approximates it; bounds were set here for any values at or beyond the usual limits of such assays; settings: source organism: Yersinia pestis
observation.type: Kd

Ask | Reported Kd for "VPRVHNQPQ" : what is it?
Reply | ≥ 20 µM

====

molecular target: HLA-A*26:01; assay: IEDB peptide-MHC binding, purified MHC/competitive/fluorescence; filed as Kd, often an IC50 or EC50 that approximates it; bounds were set here for any values at or beyond the usual limits of such assays; conditions: source organism: Vibrio antiquarius
observation.type: Kd

Ask | Would you kindly share the measured Kd for "SLTIPSFYT" ?
Reply | ≥ 20 µM

====

biological target: HLA-B*57:01; experiment: IEDB peptide-MHC binding, purified MHC/direct/fluorescence; filed as Kd, often an IC50 or EC50 that approximates it; bounds were set here for any values at or beyond the usual limits of such assays; conditions: source organism: Camelpox virus CMS
observation.type: Kd

Ask | What value of measured Kd is listed for "REVFYFGKF" ?
Reply | ≥ 20 µM

====

molecular target: HLA-B*39:01; test: IEDB peptide-MHC binding, purified MHC/competitive/fluorescence; filed as Kd, often an IC50 or EC50 that approximates it; bounds were set here for any values at or beyond the usual limits of such assays; settings: source organism: Murray Valley encephalitis virus
observation.type: Kd (nM)
Write the answer as a number in nM, unit excluded.

Ask | Form: Entry = "GHGTVVLEL" | System = HLA-B*39:01 | Kd = ____
Reply | 6.7

====

molecular target: HLA-A*02:11; assay: IEDB peptide-MHC binding, purified MHC/direct/fluorescence; filed as Kd, often an IC50 or EC50 that approximates it; bounds were set here for any values at or beyond the usual limits of such assays; conditions: source organism: Brucella suis 1330
pKd: −log10 of the molar value.
observation.type: pKd

Ask | Reported pKd for HLA-A*02:11, given "QAHMGIAGL" ?
Reply | ≤ 4.70

====

Record form. Attribute: pKd. Fill in for each entry.
molecular target: HLA-A*68:02; assay: IEDB peptide-MHC binding, purified MHC/competitive/radioactivity; filed as Kd, often an IC50 or EC50 that approximates it; bounds were set here for any values at or beyond the usual limits of such assays; conditions: source organism: Homo sapiens
Just so you know, pKd here is -log10 of the concentration in molar units; reply with that number alone.

Ask | For the sequence shown here, "ELRLLIHQSL" , give the reported pKd.
Reply | 5.95

Ask | Field request: pKd | item: "ELEALKTEL"
Reply | 4.80

Ask | Dear colleague, I am looking for the recorded pKd of the following sequence: "DLKDQIAQL"
Reply | 6.08

Ask | What value of pKd has been reported for the following sequence? "ELTCLNEASV"
Reply | 7.16

Ask | Form field: reported pKd of "ELCAEAEEL"
Reply | 5.97

====

target: HLA-B*57:01; test: IEDB peptide-MHC binding, purified MHC/direct/fluorescence; filed as Kd, often an IC50 or EC50 that approximates it; bounds were set here for any values at or beyond the usual limits of such assays; details: source organism: Influenza A virus (A/chicken/Thailand/LV1NF/2004(H5N1))
observation.type: Kd

Ask | # get_value(readout='Kd', item= "EMIWDPNGW" )
Reply | ≥ 20 µM

====

biological target: HLA-B*15:01; assay: IEDB peptide-MHC binding, purified MHC/competitive/fluorescence; filed as Kd, often an IC50 or EC50 that approximates it; bounds were set here for any values at or beyond the usual limits of such assays; settings: source organism: Chloroflexus aurantiacus J-10-fl
observation.type: Kd

Ask | So what does the record say about Kd for "AVDLSHFL" ?
Reply | ≥ 20 µM

====

target: HLA-A*24:02; test: IEDB peptide-MHC binding, purified MHC/competitive/radioactivity; filed as Kd, often an IC50 or EC50 that approximates it; bounds were set here for any values at or beyond the usual limits of such assays; details: source organism: Mammarenavirus brazilense
observation.type: Kd (µM)
Form entry: value (µM) — number only.

Ask | Field: Kd (HLA-A*24:02). Entry: "MFKTKGRYNL"
Reply | 7.17

====

biological target: HLA-B*39:01; assay: IEDB peptide-MHC binding, purified MHC/direct/fluorescence; filed as Kd, often an IC50 or EC50 that approximates it; bounds were set here for any values at or beyond the usual limits of such assays; conditions: source organism: Encephalitozoon cuniculi GB-M1
observation.type: Kd

Ask | For the sequence shown here, "FSFFMNENF" , give the reported Kd.
Reply | ≥ 20 µM

====

Field: Kd. Provide a value for each of the sequences that follow.
molecular target: HLA-A*11:01; assay: IEDB peptide-MHC binding, purified MHC/competitive/radioactivity; filed as Kd, often an IC50 or EC50 that approximates it; bounds were set here for any values at or beyond the usual limits of such assays; settings: source organism: SARS coronavirus Tor2
Kindly answer with a numeric value in nM, unit omitted.

Ask | For "TLVPQEHYVR" , what is its reported Kd?
Reply | 436

Ask | Returns the measured Kd for the input sequence. Input: "IVQMLSDTLK"
Reply | 64.4

Ask | I have this sequence here, "SLLSLREVK" , and I need its recorded Kd.
Reply | 21.2

Ask | Consider the sequence "VQIDRLITGR" and give its measured Kd.
Reply | 3020

Ask | What value of Kd has been reported for the following sequence? "SAGFSLWIY"
Reply | 116

====

target: HLA-A*02:03; assay: IEDB peptide-MHC binding, purified MHC/competitive/fluorescence; filed as Kd, often an IC50 or EC50 that approximates it; bounds were set here for any values at or beyond the usual limits of such assays; conditions: source organism: Orthomarburgvirus marburgense
observation.type: pKd
Kindly note that pKd refers to -log10 of the concentration in mol/L and answer with the value alone.

Ask | Look at this sequence and give its reported pKd. "ALFHKVQSY"
Reply | 5.81

====

biological target: HLA-B*15:01; assay: IEDB peptide-MHC binding, purified MHC/competitive/fluorescence; filed as Kd, often an IC50 or EC50 that approximates it; bounds were set here for any values at or beyond the usual limits of such assays; conditions: source organism: Homo sapiens
observation.type: Kd

Ask | # Kd lookup, item "VTENKKIQY"
Reply | ≥ 20 µM

====

biological target: HLA-A*69:01; test: IEDB peptide-MHC binding, purified MHC/direct/fluorescence; filed as Kd, often an IC50 or EC50 that approximates it; bounds were set here for any values at or beyond the usual limits of such assays; conditions: source organism: Burkholderia ambifaria AMMD
observation.type: Kd

Ask | Lab request: please report Kd under test system HLA-A*69:01 for "YLNGGRRGY"
Reply | ≥ 20 µM

====

biological target: HLA-B*54:01; assay: IEDB peptide-MHC binding, purified MHC/competitive/radioactivity; filed as Kd, often an IC50 or EC50 that approximates it; bounds were set here for any values at or beyond the usual limits of such assays; conditions: source organism: Mammarenavirus lassaense
observation.type: pKd
Scale: negative log10 of molar concentration, which is what pKd denotes.

Ask | Recorded pKd of "FPAIFSAEVL" , please.
Reply | 6.28

Ask | Form field: reported pKd of "FPYVMGDVEL"
Reply | 6.31

Ask | Fill in the blank: the reported pKd of "CPFLFLIVL" is ____.
Reply | 5.82
